Where these numbers come from: ChEMBL document CHEMBL1932971

# System: Xanthomonas oryzae
# assay protocol: Antibacterial activity against Xanthomonas oryzae at 30 ug/ml after 24 hrs by agar well diffusion method
# Assay type: functional
# test settings: read-out: DIZ
Numbered stars: 1 amine (or outer) side, 2 acyl side, 3 side chain; on linkers, the order of the positions; unused ones are H or OH. Peptide text beside a SMILES is read from it. * marks the point of attachment. Piperazinyl(4-(2,3-Cl2Ph)) = Clc1cccc(N2CCN(*)CC2)c1Cl; Thiocarbamoyl(N-4-ClPh) = S=C(Nc1ccc(Cl)cc1)*; Thiocarbamoyl(4-MeOPh) = COc1ccc(NC(=S)*)cc1; NH(4-MeO-phenyl) = COc1ccc(N*)cc1; X1 = Fc1ccc2c(C3CCN(*)CC3)noc2c1; CO = O=C([*:1])[*:2]

{"columns": ["compound", "zone of inhibition at 30 µg/mL, mm"],
 "data": [
  ["O=C(CNC(=S)Nc1ccc(Cl)cc1)NCC(=O)N[C@@H](Cc1ccccc1)C(=O)N1CCC[C@H]1C(=O)N1CCC(c2noc3cc(F)ccc23)CC1 ({Thiocarbamoyl(N-4-ClPh)}-GGFP-X1)", 27],
  ["CC[C@H](C)[C@H](NC(=O)CNC(=O)CNC(=S)Nc1ccc(Cl)cc1)C(=O)N1CCC[C@H]1C(=O)N1CCC(c2noc3cc(F)ccc23)CC1 ({Thiocarbamoyl(N-4-ClPh)}-GGIP-X1)", 25],
  ["COc1ccc(NC(=S)NCC(=O)N[C@@H](Cc2ccccc2)C(=O)NCC(=O)N[C@@H](Cc2ccccc2)C(=O)N2CCC[C@H]2C(=O)N2CCN(c3cccc(Cl)c3Cl)CC2)cc1 ({Thiocarbamoyl(4-MeOPh)}-GFGFP-{Piperazinyl(4-(2,3-Cl2Ph))})", 28],
  ["COc1ccc(NC(=O)NCC(=O)NCC(=O)N[C@@H](Cc2ccccc2)C(=O)N2CCC[C@H]2C(=O)N2CCN(c3cccc(Cl)c3Cl)CC2)cc1 ({NH(4-MeO-phenyl)-CO}-GGFP-{Piperazinyl(4-(2,3-Cl2Ph))})", 23],
  ["COc1ccc(NC(=O)NCC(=O)NCC(=O)N[C@@H](Cc2ccccc2)C(=O)N2CCC[C@H]2C(=O)N2CCC(c3noc4cc(F)ccc34)CC2)cc1 ({NH(4-MeO-phenyl)-CO}-GGFP-X1)", 24]
]}
